- Tested on: DFO2036
- ASSAY_OVERVIEW: qHTS profiling for inhibitors of Plasmodium falciparum proliferation (AID 504749); also: nearly all actives have a fitted effect of over 60% in size
- PARTICULARS: P. falciparum in erythrocytes, SYBR Green DNA, 72 h; series mostly up to 28.7 µM
- Procedure: NIH National Institute of Allergy and Infectious Diseases [NIAID] NIH Chemical Genomics Center [NCGC] […] Because mature erythrocytes lack DNA, only Plasmodium-derived DNA is detected. NCGC Assay Protocol Summary: The SYBR Green viability assay was adapted from a method described previously (Plouffe et al., 2008). […] The following morning, fluorescence intensity at 485(14) nm excitation and 535(25) nm emission wavelengths was measured on an EnVision (Perkin Elmer) plate reader. […]
Results filed as inconclusive are left out. Activity calls are given as the source filed them. Calls follow the shape of the dose curve; as a rule, active = well fitted inhibition curve with a large enough effect; inconclusive = small, poorly fitted or top-dose-only effect; inactive = flat fitted curve, though single readings scatter.
Choose the fitting class; nothing outside active, inactive is accepted.

Some entries whose results are on file:
>>> cat("O=C(NC(O)C(Cl)(Cl)Cl)NC(O)C(Cl)(Cl)Cl (stereo not drawn)")
"inactive"
>>> cat("O=C(O)c1ccc2[nH]cc(CCCCN3CC=C(c4ccccc4)CC3)c2c1")
"inactive"
>>> cat("CCC(C(N)=O)N1CCCC1=O (stereo not drawn)")
"inactive"
>>> cat("CC(=O)[C@H]1CC[C@H]2[C@@H]3CC[C@H]4C[C@H](O)CC[C@]4(C)[C@H]3C(=O)C[C@]12C")
"inactive"
>>> cat("C=C1CC[C@@]2(O)[C@H]3Cc4ccc(O)c5c4[C@@]2(CCN3CC2CC2)[C@H]1O5")
"inactive"
>>> cat("Clc1ccc(COC(Cn2ccnc2)c2ccc(Cl)cc2Cl)cc1 (stereo not drawn)")
"active"

-- ask // outcome(item) with item = CC(C)(N)Cc1ccc(Cl)cc1
-- reply inactive

-- ask // outcome(item) with item = CC[N+](CC)(CC)CC
-- reply inactive

-- ask // outcome(item) with item = c1ccc(C2CC2)c(OCC2=NCCN2)c1
-- reply inactive

###

- ASSAY_OVERVIEW: Cellular Toxicity (caspase-3) H-4-II-E (AID 663);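 also: cells exposed to compound for 16 hr before readout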
- PARTICULARS: H-4-II-E rat hepatoma, scaled: DMSO 0%, 100 µM tamoxifen 100%; at 92.2 µM (top of the series)
Records with an inconclusive call do not appear.
METRIC: caspase-3 activation (%)
Numbers only, in %.

Below, 3 compounds whose answers are already recorded.
>>> test_value("CCOP(=S)(OCC)Oc1cc(C)nc(C(C)C)n1")
-0.387
>>> test_value("CNCC(O)c1ccc(O)cc1 (centres undefined)")
-0.124
>>> test_value("Oc1ccc(Cl)cc1Cc1ccccc1")
2.16

Lab note: measured caspase-3 activation of CCCC(C)(COC(N)=O)COC(=O)NC(C)C (centres undefined) was 0.766

###

- ASSAY_OVERVIEW: Identifying Small Molecule Inhibitors of Pancreatic Cancer Stem Cells (A278, Adherent) (AID 1259361);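 also: viability read after 48 h compound exposure; nearly all actives have a fitted effect of over 35% in size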
- PARTICULARS: series mostly up to 46.1 µM
Inconclusive results are not listed. The source made the active and inactive calls. Calls come from the whole dose curve; as a rule, active = well fitted cell-killing curve with a large enough effect; inconclusive = small, poorly fitted or top-dose-only effect; inactive = flat fitted curve, though single readings scatter.
METRIC: IC50 (viability decrease)

Below, 4 compounds whose answers are already recorded.
>>> test_value("COC1(CS(=O)c2ccccc2)CCN(CCc2c[nH]c3ccc(F)cc23)CC1 (stereo not given)")
"inactive"
>>> test_value("COC[C@H]1OC(=O)c2coc3c2[C@@]1(C)C1=C(C3=O)C2CCC(=O)[C@@]2(C)C[C@H]1OC(C)=O (stereo not given in full)")
"23.5 µM (active)"
>>> test_value("CNC(=O)N1N=C(c2ccc(N)cc2)c2cc3c(cc2CC1C)OCO3 (stereo not given)")
"7.43 µM (active)"
>>> test_value("Cn1c(CCCC(=O)O)nc2cc(N(CCCl)CCCl)ccc21")
"inactive"

Lab note: measured IC50 (viability decrease) of CN(C)CCN(C)CCc1ccc(Cl)c(Cl)c1 was inactive
